The entries below are paired with their reported Size (nm).
- assay-details: Lipid nanoparticle size and polydispersity index by dynamic light scattering (Malvern Zetasizer)
- Type: physicochemical
- condition-summary: hEPO mRNA LNP, Process A, Cationic Lipid:DMG-PEG2000:Cholesterol:DOPE 40:1.5:28.5:30 mol %, N/P 4
Supply the numeric figure in nm, leaving out any unit text.

>>> value("CCCCCCCCCCC(O)CN(CCCOC(=O)O[C@@H]1CO[C@H]2[C@@H]1OC[C@H]2OC(=O)OCCCN(CC(O)CCCCCCCCCC)CC(O)CCCCCCCCCC)CC(O)CCCCCCCCCC (stereo partly shown) [Compound 36]")
94
>>> value("CCCCCCCCCCCOC(=O)CCCC(O)CN(CCCC(=O)O[C@@H]1CO[C@H]2[C@@H]1OC[C@H]2OC(=O)CCCN(CC(O)CCCCCC(=O)OC(CCCCCCCC)CCCCCCCC)CC(O)CCCC(=O)OCCCCCCCCCCC)CC(O)CCCCCC(=O)OC(CCCCCCCC)CCCCCCCC (stereo partly shown) [Compound 11]")
120
>>> value("CCCCCC/C=C\\COC(=O)CCCCCC(O)CN(CCCC(=O)O[C@@H]1CO[C@H]2[C@@H]1OC[C@H]2OC(=O)CCCN(CC(O)CCCCCC(=O)OC/C=C\\CCCCCC)CC(O)CCCCCC(=O)OC/C=C\\CCCCCC)CC(O)CCCCCC(=O)OC/C=C\\CCCCCC (stereo partly shown) [Compound 16]")
84

# evaluate next
For CCCCCCCCC(O)CN(CCCC(=O)N[C@H]1CO[C@H]2[C@@H]1OC[C@@H]2NC(=O)CCCN(CC(O)CCCCCCCC)CC(O)CCCCCCCC)CC(O)CCCCCCCC (stereo partly shown) [Compound 51] the compound record lists Size (nm) as 71

The reported numbers originate from patent US20260224486A1.
